From: patent US11739074B2

System: AsPC-1 (K-Ras G12D)
Test method notes: CellTiter-Glo cell viability assay, AsPC-1
Format: cell-based
Experimental parameters: Homo sapiens, ASPC1, 120 h, read-out: AsPC-1 Cell Viability IC50
Below is a list of entries, each paired with its recorded IC50 value.

Worked examples follow.
Compound | Reported metric | Result
CCn1c(-c2cnccc2COC)c2c3cc(ccc31)-c1cc(O)cc(c1)C[C@H](NC(=O)[C@H](C(C)C)N(C)C(=O)CN(C)C(=O)[C@H]1CN1C(C)=O)C(=O)N1CCC[C@H](N1)C(=O)OCC(C)(C)C2 [Example 34] | IC50 | 1 to 10 µM
CCn1c(-c2cnccc2COC)c2c3cc(ccc31)-c1cc(O)cc(c1)C[C@H](NC(=O)[C@H](C(C)C)N(C)C(=O)CN(C)C(=O)[C@H]1[C@@H](C(=O)OC)N1[S@+]([O-])C(C)(C)C)C(=O)N1CCC[C@H](N1)C(=O)OCC(C)(C)C2 (stereo partly shown) [Example 48] | IC50 | 1 to 10 µM
CCn1c(-c2cnccc2COC)c2c3cc(ccc31)-c1cc(O)cc(c1)C[C@H](NC(=O)[C@H](C(C)C)N(C)C(=O)CN(C)C(=O)[C@@H]1[C@H](C)N1[S@@+]([O-])C(C)(C)C)C(=O)N1CCC[C@H](N1)C(=O)OCC(C)(C)C2 (stereo partly shown) [Compound 54] | IC50 | 1 to 10 µM

Which measured IC50 value corresponds to CCn1c(-c2cnccc2COC)c2c3cc(ccc31)-c1cc(O)cc(c1)C[C@H](NC(=O)[C@H](C(C)C)N(C)C(=O)CN(C)C(=O)[C@H]1CN1S(C)(=O)=O)C(=O)N1CCC[C@H](N1)C(=O)OCC(C)(C)C2 (stereo partly shown) [Example 36] ? > 10 µM
